All figures here come from the supplement of paper PMC11451515.

test system: P12-Ichikawa; assay: cell viability relative to DMSO control; higher = less cytotoxic; conditions: RPMI 5 mM glucose + 10% FBS; 48 h; 0.0211 µM
Items are presented alongside their recorded cell viability.
Answer with the value and then the unit.

| smiles.string | cell viability |
| --- | --- |
| CC(=O)OCC(=O)[C@@]12\N=C(C)/O[C@@H]1C[C@H]3[C@@H]4CCC/5=C/C(=O)/C=C\[C@]5(C)[C@H]4[C@@H](O)C[C@]23C | 114% |
| O=C1\C=C/C[C@@H]2[C@H]3CCCN4CCC[C@@H](CN12)[C@@H]34 | 101% |
| CC(C)(C)c1cc(C=C(C#N)C#N)cc(Br)c1O | 117% |
| Cc1cccc(-c2nn(C(=S)Nc3ccccc3)cc2-c2ccnc3ccccc23)n1 | 124% |
| [NH2][Pt]([NH2])([Cl])[Cl] | 98% |

For the compound CC(C)(C)C(=O)OCOP(=O)(COCCn1cnc2c(N)ncnc21)OCOC(=O)C(C)(C)C , give its reported cell viability.
94.6%
